Experiment: recombinant UMI read abundance after kanamycin selection (control-corrected) (log10(CPM+1)); higher = more efficient recombination; extreme values may be limits of the assay; sequences stand for … in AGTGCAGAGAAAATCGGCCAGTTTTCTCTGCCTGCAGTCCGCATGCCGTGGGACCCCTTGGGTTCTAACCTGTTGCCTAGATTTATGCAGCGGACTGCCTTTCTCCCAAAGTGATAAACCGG…AGGTTGGTTTCACT; site = the 11-nt donor;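 note: IS621 bridge recombinase in Escherichia coli cells against a fixed T5 target plasmid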
observed-property: recombinant UMI read abundance (log10)

entry-sequence: GCGACACCATGGACCGGTTTTCCCGGTAATCCGTATTTGTC (site GCGACACCTGA)
recorded-measurement: 0
//
entry-sequence: CCGGTACCATGGACCGGTTTTCCCGGTAATCCGTATTTGAG (site CCGGTACCTCT)
recorded-measurement: 0

Input: Field request: recombinant UMI read abundance (log10) | item: TTTGTTCCATGGACCGGTTTTCCCGGTAATCCGTATTTGGT (site TTTGTTCCTAC)
Output: 0.0215

Input: Then CGTTAGTCATGGACCGGTTTTCCCGGTAATCCGTATTTGAG (site CGTTAGGCTCT) ?
Output: 0.0227
